Measured values drawn from PubChem BioAssay (NCATS) for this set.

System: DIV17
Test: qHTS profiling for inhibitors of Plasmodium falciparum proliferation (AID 504749); also: nearly all actives have a fitted effect of over 60% in size; also: potency is read from the fitted curve at half-maximal effect
Details: P. falciparum in erythrocytes, SYBR Green DNA, 72 h; series mostly up to 12.8 µM
Results filed as inconclusive are left out. Activity calls are given as the source filed them. Calls follow the shape of the dose curve; as a rule, active = well fitted inhibition curve with a large enough effect; inconclusive = small, poorly fitted or top-dose-only effect; inactive = flat fitted curve, though single readings scatter. Bridge positions count the residues as written; N and C are the ends. Square brackets hold non-standard residues; d marks the D form. Peptide text beside a SMILES is read from it. * marks the point of attachment. Ileψ(thiazoline)Cys = CC[C@H](C)[C@H](N)C1=N[C@H](C(=O)*)CS1; d(aIle) = CC[C@H](C)[C@@H](N)C(=O)O; dOrn = NCCC[C@@H](N)C(=O)O
valueKind: Potency

Example entries begin here.
molecule	Potency
CC[C@H](C)[C@H](N)C1=N[C@H](C(=O)N[C@@H](CC(C)C)C(=O)N[C@@H](CCC(=O)O)C(=O)N[C@@H](C(=O)N[C@H]2CCCCNC(=O)[C@@H](CC(N)=O)NC(=O)[C@@H](CC(=O)O)NC(=O)[C@@H](Cc3cnc[nH]3)NC(=O)[C@@H](Cc3ccccc3)NC(=O)[C@@H]([C@@H](C)CC)NC(=O)[C@@H](CCCN)NC2=O)[C@@H](C)CC)CS1 ({Ileψ(thiazoline)Cys}-LE[d(aIle)]K[dOrn][d(aIle)][dF][dH][dD][dN]; lactam 4-C)	inactive
CO[C@H]1[C@@H](OC(N)=O)[C@H](O)[C@@H](Oc2ccc3c(O)c(NC(=O)c4ccc(O)c(CC=C(C)C)c4)c(=O)oc3c2C)OC1(C)C	inactive
C=CC1=C(C(=O)O)N2C(=O)[C@@H](NC(=O)/C(=N\OCC(=O)O)c3csc(N)n3)[C@@H]2SC1	inactive
Cc1ccsc1/C=C\C1=NCCCN1C	inactive

# input for lookup
Item: COc1cc(C2c3cc4c(cc3C(O[C@@H]3OC5COC(c6cccs6)OC5C(O)C3O)C3COC(=O)C23)OCO4)cc(OC)c1O (stereo not given in full) | Potency: 4.26 µM (active)

###

Tested on: PAD
Assay: qHTS profiling for inhibitors of Plasmodium falciparum proliferation (AID 504749); also: nearly all actives have a fitted effect of over 60% in size
Details: P. falciparum in erythrocytes, SYBR Green DNA, 72 h; series mostly up to 12.8 µM
Experimental: NIH National Institute of Allergy and Infectious Diseases [NIAID] NIH Chemical Genomics Center [NCGC] […] Because mature erythrocytes lack DNA, only Plasmodium-derived DNA is detected. NCGC Assay Protocol Summary: The SYBR Green viability assay was adapted from a method described previously (Plouffe et al., 2008). […] The following morning, fluorescence intensity at 485(14) nm excitation and 535(25) nm emission wavelengths was measured on an EnVision (Perkin Elmer) plate reader. […]
Records with an inconclusive call do not appear. Active and inactive are the calls of the source. The call rests on the fitted dose curve; in most records, active means well fitted inhibition curve with a large enough effect; inconclusive means small, poorly fitted or top-dose-only effect; inactive means flat fitted curve, though single readings scatter.
Use one of these outcomes when replying: TRUE = active, FALSE = inactive

These solved cases illustrate the format of a correct answer.
> print(dat)
                            smilesstructure  grouplabel
1  CCOC(=O)O[C@@H](C)OC(=O)[C@@H]1N2C(=O)[C@@H](NC(=O)[C@@H](N)c3ccccc3)[C@H]2SC1(C)C       FALSE
2  Clc1ccc(CC[C@H](Cn2ccnc2)Sc2c(Cl)cccc2Cl)cc1        TRUE

Query compound follows.
Query block: Given COc1ccc2c(c1)N(C[C@@H](C)CN(C)C)c1ccccc1S2 , state the outcome it received in this test.
Result block: FALSE

###

Test system: CP247
Assay: qHTS profiling for inhibitors of Plasmodium falciparum proliferation (AID 504749); also: nearly all actives have a fitted effect of over 60% in size; also: potency is read from the fitted curve at half-maximal effect
Conditions: P. falciparum in erythrocytes, SYBR Green DNA, 72 h; series mostly up to 12.8 µM
Inconclusive results are not listed. Activity calls are given as the source filed them. The call rests on the fitted dose curve; in most records, active means well fitted inhibition curve with a large enough effect; inconclusive means small, poorly fitted or top-dose-only effect; inactive means flat fitted curve, though single readings scatter.
valueKind: Potency

compound	Potency
O=C(N/N=C\c1ccc([N+](=O)[O-])o1)c1ccc(O)cc1	2.82 µM (active)
CCC1OC(=O)C(C)[C@@H](O[C@H]2C[C@@](C)(OC)C(O)C(C)O2)C(C)[C@@H](O[C@@H]2OC(C)CC(N(C)C)C2O)[C@@](C)(O)CC(C)C(=O)[C@@H](C)C(O)[C@]1(C)O (stereo partly specified)	inactive
CCOC(=O)O[C@]1(C(=O)COC(=O)CC)CC[C@@H]2[C@@H]3CCC4=CC(=O)C=C[C@@]4(C)[C@H]3[C@H](O)C[C@]21C	inactive
CC[C@H](Cc1c(I)cc(I)c(N)c1I)C(=O)O	inactive
CCOC(=O)[C@H](CCc1ccccc1)N[C@@H](C)C(=O)N1[C@H](C(=O)O)C[C@H]2CCC[C@@H]21	inactive
Cc1ccc2c(c1)c1c3n2CCN[C@H]3CCC1	inactive
C/C1=C2N=C(/C=C3N=C(/C(C)=C4\[N-]C(C)(C5N=C1C(C)(CCC(=O)NCC(C)OP(=O)([O-])O[C@H]1C(O)C(n6cnc7cc(C)c(C)cc76)O[C@@H]1CO)C5CC(N)=O)C(C)(CC(N)=O)C4CCC(N)=O)C(C)(CC(N)=O)C\3CCC(N)=O)C(C)(C)C/2CCC(N)=O.[CH2-]C1OC(n2cnc3c(N)ncnc32)C(O)C1O.[Co] (stereo partly specified)	inactive
CN(C)CCn1nnnc1SCC1=C(C(=O)O)N2C(=O)[C@@H](NC(=O)Cc3csc(N)n3)[C@@H]2SC1	inactive

Item: NC[C@@H]1O[C@@H](O[C@H]2[C@H](O)[C@H](O[C@@H]3O[C@H](CO)[C@@H](O)[C@H](N)[C@@H]3O)[C@@H](N)C[C@H]2N)[C@H](N)C[C@@H]1O | Potency: inactive

Item: O=C1OC(CO)C(O)C(O)C1O (stereo unspecified) | Potency: inactive

Item: COc1c(O[C@H]2O[C@@H](CO)[C@@H](O)[C@@H](O)[C@@H]2O)cc2c(c1OC)-c1ccc(SC)c(=O)cc1[C@H](NC(C)=O)CC2 | Potency: inactive

###

Tested on: GB4
Test: qHTS profiling for inhibitors of Plasmodium falciparum proliferation (AID 504749); also: nearly all actives have a fitted effect of over 60% in size
Conditions: P. falciparum in erythrocytes, SYBR Green DNA, 72 h; series mostly up to 12.8 µM
Inconclusive results are not listed. The source made the active and inactive calls. Calls come from the whole dose curve; as a rule, active = well fitted inhibition curve with a large enough effect; inconclusive = small, poorly fitted or top-dose-only effect; inactive = flat fitted curve, though single readings scatter. Bridge positions count the residues as written; N and C are the ends. Square brackets hold non-standard residues; d marks the D form. Peptide text beside a SMILES is read from it. * marks the point of attachment. Ileψ(thiazoline)Cys = CC[C@H](C)[C@H](N)C1=N[C@H](C(=O)*)CS1; d(aIle) = CC[C@H](C)[C@@H](N)C(=O)O; dOrn = NCCC[C@@H](N)C(=O)O
Use one of these outcomes when replying: active, inactive

These solved cases illustrate the format of a correct answer.
molecule	groupLabel
O[C@@](CCN1CCCC1)(c1ccccc1)C1CCCCC1	inactive
C[C@@H](CNC1CCCCC1)OC(=O)c1ccccc1	active
NC[C@@H]1O[C@@H](O[C@H]2[C@H](O)[C@H](O[C@@H]3O[C@H](CO)[C@@H](O)[C@H](N)[C@@H]3O)[C@@H](N)C[C@H]2N)[C@H](N)C[C@@H]1O	inactive

Query block: Given Cc1onc(-c2ccccc2Cl)c1C(=O)N[C@H]1C(=O)N2[C@H]1SC(C)(C)[C@H]2C(=O)O , state the outcome it received in this test.
Result block: inactive

Query block: Given CC(C)(C)NC[C@H](O)COc1cccc2c1CCC(=O)N2 , state the outcome it received in this test.
Result block: inactive

Query block: Given CCN(CC)[C@@H](C)CN1c2ccccc2Sc2ccccc21 , state the outcome it received in this test.
Result block: active

Query block: Given CC[C@H](C)[C@H](N)C1=N[C@H](C(=O)N[C@@H](CC(C)C)C(=O)N[C@@H](CCC(=O)O)C(=O)N[C@@H](C(=O)N[C@H]2CCCCNC(=O)[C@@H](CC(N)=O)NC(=O)[C@@H](CC(=O)O)NC(=O)[C@@H](Cc3cnc[nH]3)NC(=O)[C@@H](Cc3ccccc3)NC(=O)[C@@H]([C@@H](C)CC)NC(=O)[C@@H](CCCN)NC2=O)[C@@H](C)CC)CS1 ({Ileψ(thiazoline)Cys}-LE[d(aIle)]K[dOrn][d(aIle)][dF][dH][dD][dN]; lactam 4-C) , state the outcome it received in this test.
Result block: inactive

Query block: Given C[C@@H](C(=O)O)c1ccc(C(=O)c2ccccc2)s1 , state the outcome it received in this test.
Result block: inactive

###

Molecular target: Rap guanine nucleotide exchange factor 4 (Homo sapiens) (UniProt Q8WZA2)
Sequence (Q8WZA2 whole entry, looked up): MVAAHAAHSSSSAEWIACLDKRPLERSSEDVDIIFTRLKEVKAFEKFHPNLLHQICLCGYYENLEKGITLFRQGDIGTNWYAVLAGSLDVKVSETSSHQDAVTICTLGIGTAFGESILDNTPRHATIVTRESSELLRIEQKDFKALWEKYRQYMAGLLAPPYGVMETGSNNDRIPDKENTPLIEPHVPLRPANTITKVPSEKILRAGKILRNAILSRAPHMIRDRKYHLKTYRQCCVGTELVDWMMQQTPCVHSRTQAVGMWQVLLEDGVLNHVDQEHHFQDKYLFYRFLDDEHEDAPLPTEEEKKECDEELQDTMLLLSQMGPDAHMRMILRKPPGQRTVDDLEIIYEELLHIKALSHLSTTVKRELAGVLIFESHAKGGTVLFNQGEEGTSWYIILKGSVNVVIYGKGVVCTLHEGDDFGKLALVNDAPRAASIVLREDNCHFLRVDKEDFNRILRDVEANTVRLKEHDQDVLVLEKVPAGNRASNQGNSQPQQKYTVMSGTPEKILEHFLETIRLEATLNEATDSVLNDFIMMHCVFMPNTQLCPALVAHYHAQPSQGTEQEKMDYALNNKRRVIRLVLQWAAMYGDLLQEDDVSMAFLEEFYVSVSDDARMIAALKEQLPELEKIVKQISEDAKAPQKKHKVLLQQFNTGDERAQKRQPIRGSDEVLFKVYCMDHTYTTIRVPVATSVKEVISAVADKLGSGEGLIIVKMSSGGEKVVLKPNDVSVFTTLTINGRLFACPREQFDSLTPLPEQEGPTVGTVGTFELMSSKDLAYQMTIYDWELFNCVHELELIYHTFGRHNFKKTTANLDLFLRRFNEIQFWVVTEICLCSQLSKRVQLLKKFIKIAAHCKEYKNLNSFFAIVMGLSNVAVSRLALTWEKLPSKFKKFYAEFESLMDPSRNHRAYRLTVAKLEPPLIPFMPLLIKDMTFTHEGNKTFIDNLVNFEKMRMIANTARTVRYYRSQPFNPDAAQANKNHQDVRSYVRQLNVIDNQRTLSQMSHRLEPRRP
Assay: Confirmatory qHTS for antagonist of cAMP-regulated guanine nucleotide exchange factor 4 (EPAC2) (AID 1645885); also: nearly all actives have a fitted effect of over 25% in size; also: potency is read from the fitted curve at half-maximal effect
Settings: EPAC2 Rap1B-BODIPY-GDP exchange fluorescence, biochemical; series mostly up to 12.7 µM
Results filed as inconclusive are left out. Active and inactive are the calls of the source. Calls follow the shape of the dose curve; as a rule, active = well fitted inhibition curve with a large enough effect; inconclusive = small, poorly fitted or top-dose-only effect; inactive = no such curve, though single readings can be large or run the other way.
valueKind: Potency

> print(dat)
                                   compound     endpointvalue
1  c1ccc2c(N3CCCCCC3)nc(CN3CCCCC3c3nccs3)nc2c1 (configuration not stated)  13.9 µM (active)
2    COc1ccc(OCc2nc3ccccc3n2Cc2ccccc2Cl)cc1          inactive
3   Cc1[nH]c(C)c2c(=O)n(Cc3ccc(Cl)cc3)ncc12  15.1 µM (active)
4  CCOc1ccc(NS(=O)(=O)c2cc3c(cc2C)N(C)CCO3)cc1          inactive
5  CN(C)c1ccc(/C=C/C(=O)c2ccc3c(c2)OCO3)cc1  37.9 µM (active)

Item: Brc1ccc(-c2csc(-c3c[nH]c4ccccc34)n2)cc1 | Potency: inactive

Item: Cc1cccc(NC(=O)CC2Nc3cccc4cccc(c34)NC2=O)c1 (configuration not stated) | Potency: inactive
